Here the recorded Phage binding ELISA signal, Anti-PSMA Fab is given for each entry.
biological target: T1, PSMA Fab; assay: clonal phage ELISA; biotinylated PSMA Fab on neutravidin plate, blocking buffer alone; anti-M13 HRP detection;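 also: crude clonal phage supernatants added without washing to wells pretreated with blocking buffer with or without PSMA antigen, short incubation, then washed before detecting bound phage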
T1 construct: also called Anti-PSMA Fab; 006 PSMA Fab
Where no end group is shown, it is not given here.
// print number alone

Solved entries (count: 2):
binder: QEVWCRPIWMCEGF [Phage-3472]
test_result: 1.73
--
binder: EGTWCRPAWMCDGF [Phage-3473]
test_result: 1.73

Phage binding ELISA signal, Anti-PSMA Fab in this record for VDQVCIPDWMCNGF [Phage-3470] : 1.73

According to the records, this binder TNPMCVPEWMCYGF [Phage-3468] displays Phage binding ELISA signal, Anti-PSMA Fab of 1.73

The binder identified as LERACKPMWMCEGF [Phage-3474] registered its Phage binding ELISA signal, Anti-PSMA Fab at 1.73

The recorded Phage binding ELISA signal, Anti-PSMA Fab for EIVKCVPPWMCSGI [Phage-3469] is 1.73

Just so you know, measured Phage binding ELISA signal, Anti-PSMA Fab for ETHFCKPKWMCVGF (cysteine pairing not given here; also: fused to pIII of bacteriophage) [Phage-3465] came out at 1.74

Phage binding ELISA signal, Anti-PSMA Fab measured on LEAACRPMWMCLGF (cysteine pairing not given here; also: fused to pIII of bacteriophage) [Phage-3466] = 1.73

# Phage binding ELISA signal, Anti-PSMA Fab of EIKHCIPEWMCSGF (cysteine pairing not given here; also: fused to pIII of bacteriophage) [Phage-3464] = 1.74

In plain terms, EDRICEPDWMCAGF [Phage-3475] has a documented Phage binding ELISA signal, Anti-PSMA Fab of 1.73

Phage binding ELISA signal, Anti-PSMA Fab measured on EVLLCKPEWMCTGF (cysteine pairing not given here; also: fused to pIII of bacteriophage) [Phage-3463] = 1.74

Phage binding ELISA signal, Anti-PSMA Fab measured on SVPSCVPPWMCIGF [Phage-3471] = 1.73

The value of Phage binding ELISA signal, Anti-PSMA Fab measured for the binder WEARCQPTWMCTGF (cysteine pairing not given here; also: fused to pIII of bacteriophage) [Phage-3467] turned out to be 1.73
